molecular target: NK1 (Homo sapiens); assay: SPR fragment library screening against NK1; type: binding; design: made in house; host or cells: Pichia pastoris; details: normalised relative value against NK1; fragments 500 μM (ESI Tables S3-S7)
Sequence (P14210 32-210 isoform P14210-6 limits assumed): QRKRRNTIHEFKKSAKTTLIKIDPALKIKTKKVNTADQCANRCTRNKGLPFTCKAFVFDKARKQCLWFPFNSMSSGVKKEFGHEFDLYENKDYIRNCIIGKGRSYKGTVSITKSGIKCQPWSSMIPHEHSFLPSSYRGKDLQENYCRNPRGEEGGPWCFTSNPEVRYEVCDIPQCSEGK
Readout type: SPR response (%)

>  <Smiles entry>
Cc1csc(C(=O)O)c1

>  <Readout type>
SPR response

>  <Unit info>
%

>  <Reading>
49

$$$$
>  <Smiles entry>
COC(=O)CSc1ccccc1

>  <Readout type>
SPR response

>  <Unit info>
%

>  <Reading>
60

$$$$
>  <Smiles entry>
NC(=O)c1ccc(-c2csnn2)cc1

>  <Readout type>
SPR response

>  <Unit info>
%

>  <Reading>
50

$$$$
